FYI, the data here is from ChEMBL document CHEMBL1201862.

Test system: Hs-578T
test-name: NCI tumour cell line growth inhibition, 48 h
Activity calls are given as the source filed them. No stated cut-off is given here; in the data, active = GI50 up to about 1.1 µM and inactive = higher.
A correct response names exactly one class from t for active, f for inactive

{"columns": ["compound", "target-of-assay", "class-assignment"],
 "data": [
  ["CCCCN1C(=O)CS/C1=N/Nc1nc2c([nH]1)c(=O)n(C)c(=O)n2C", "Hs-578T", "f"],
  ["N#Cc1c(O)c(/C=N/c2ccc(Cl)cc2)c(=O)n2c1[nH]c1ccccc12", "Hs-578T", "f"],
  ["COc1cc(/C=C/C(=O)O)ccc1O [FERULATE]", "Hs-578T", "f"],
  ["O=C(NCCCCCCNCc1cccc2ccccc12)Nc1cccc2ccccc12", "Hs-578T", "f"],
  ["CC(=O)NC1=C(OS(=O)(=O)c2ccc(C)cc2)CN(C)C1=O", "Hs-578T", "f"],
  ["CC(=O)NCCC1CN(C(=O)/C=C\\C#C[Si](C)(C)C)c2ccccc21 (stereo not given)", "Hs-578T", "f"],
  ["Clc1ccccc1/C=C/c1ccnc2ccccc12", "Hs-578T", "f"],
  ["COc1ccc(OC)c2c1C(=O)C(O)=C(Cl)C2=O", "Hs-578T", "f"]
]}

Status in this test for `N#Cc1nc(C2=C(Cl)c3ccccc3OC2)[nH]c1C#N` ?
f

Status in this test for `N#Cc1ccccc1NC(=O)C(=O)c1c(O)c2ccccc2oc1=O` ?
f

Status in this test for `C/C(Cl)=N\OC(=O)Nc1ccc([N+](=O)[O-])cc1` ?
f

Status in this test for `CCOC(=O)c1nc2ccccc2nc1Oc1ccc(OC)cc1` ?
f

Status in this test for CC(=O)c1c(-c2cccc3ccccc23)c(C#N)c(=S)n(C2OC(CO)C(O)C(O)C2O)c1C (stereo not given) ?
f

Status in this test for COc1ccc(CC2COc3cc(OC)cc(OC)c3C2=O)cc1 (stereo not given) ?
f

Status in this test for `O=C1CCCc2cc3c(cc21)CC1(Cc2ccccc2C1)C3` ?
f

Status in this test for `COc1cc(C[C@@H](C)N)cc(OC)c1` ?
f

Status in this test for COc1ccc(CCN(C)C(=O)CC(C#N)(c2ccccc2)c2ccc(OC)c(OC)c2)cc1OC (stereo not given) ?
f

Status in this test for OC(CCN1CCN(CCOC(c2ccccc2)c2ccccc2)CC1)c1ccccc1 (stereo not given) ?
f

Status in this test for `O=C(O)c1ccc(NNC(=O)c2cccc3c(=O)c4ccccc4[nH]c23)cc1` ?
f

Status in this test for `C[C@]12CC[C@H]3[C@@H](CC[C@]4(O)C[C@@H](O)CC[C@]34/C=N/O)[C@@]1(O)CC[C@@H]2C1=COC(=O)C1` ?
t

Status in this test for `CCc1c(Cl)c(C)cc(O)c1Cl` ?
f

Status in this test for CC1(O)CCC(C(C)(C)O)CC1 (stereo not given) ?
f

Status in this test for `COC(=O)[C@]1(C)CCC[C@]2(C)[C@@H](CCC(=O)C(C)C)[C@]3(C=O)O[C@@H]3C[C@H]21` ?
f
